Test system: COR L88 complex tumor spheroid viability
experimental-details: Anticancer human tumor COR L88 cell line growth inhibition;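 note: compound exposure lasted 7 days before viability readout; percent of DMSO vehicle-treated spheroids = 100%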
stated-conditions: second compound 0.00949 µM; first compound 0.316 µM; stronger effect = lower value
measurement-type: viability, T/C

Solved entries (count: 5):
>  <compound>
CC(C)n1c(=O)n(C)c2cnc3cc(F)c(-c4ccc(OCCCN5CCCCC5)nc4)cc3c21 + CC[C@@]1(O)C(=O)OCc2c1cc1n(c2=O)Cc2cc3c(CN(C)C)c(O)ccc3nc2-1

>  <measurement-type>
viability, T/C

>  <val>
48.2%

$$$$
>  <compound>
COc1ccc([C@@H](O)c2cc(-c3ncnc4cc(N5CCOCC5)ccc34)c(F)cc2Cl)nn1 + CC[C@@]1(O)C(=O)OCc2c1cc1n(c2=O)Cc2cc3c(CN(C)C)c(O)ccc3nc2-1

>  <measurement-type>
viability, T/C

>  <val>
67.9%

$$$$
>  <compound>
CC1COCCN1c1cc(-c2ccnn2C)c2ccnc(-c3ccn[nH]3)c2n1 (stereo unspecified) + CC[C@@]1(O)C(=O)OCc2c1cc1n(c2=O)Cc2cc3c(CN(C)C)c(O)ccc3nc2-1

>  <measurement-type>
viability, T/C

>  <val>
27.7%

$$$$
>  <compound>
COc1cc(C)[nH]c(=O)c1CN1CCc2c(Cl)cc(C(OC)C3COC3)c(Cl)c2C1=O (stereo unspecified) + CC[C@@]1(O)C(=O)OCc2c1cc1n(c2=O)Cc2cc3c(CN(C)C)c(O)ccc3nc2-1

>  <measurement-type>
viability, T/C

>  <val>
53.3%

$$$$
>  <compound>
[2H]c1nc(C)nc([2H])c1-c1cc(NC[C@@H](C)c2cccc3c(C(=O)NC)ccnc23)ncn1 + CC[C@@]1(O)C(=O)OCc2c1cc1n(c2=O)Cc2cc3c(CN(C)C)c(O)ccc3nc2-1

>  <measurement-type>
viability, T/C

>  <val>
83.1%

$$$$

Moving on to another compound below.
Cc1cc(C)c(CNC(=O)c2cc(-c3ccc(CN4CCOCC4)cc3)cc3c2cnn3C2CCCC2)c(=O)[nH]1 + CC[C@@]1(O)C(=O)OCc2c1cc1n(c2=O)Cc2cc3c(CN(C)C)c(O)ccc3nc2-1 has a reported viability, T/C of 83.8%
